- assay-name: basal MM1S mitochondrial membrane potential changes, profiling panel, cell-based, JC-1 fluorescence, 24 h, 100 nL compound (AID 1170); also: test concentration not given here
- cond: higher = more signal
Classification field: enter t for z-score values not below -1, f for values below it.

entry-smiles	classification
COC(=O)[C@@]1(Cc2ccc(OC)cc2)[C@H]2c3cc(C(=O)N4CCCC4)n(Cc4ccc(OC(F)(F)F)cc4)c3C[C@H]2CN1C(=O)c1ccccc1	f
[N-]=[N+]=Nc1ccccc1C[C@@]1(C(=O)O)N=C(c2ccc(OCCCO)cc2)O[C@@H]1c1ccccc1N=[N+]=[N-]	t
COCCOC(=O)N1C(=O)[C@@]2(c3cc(C#CC4(O)CCCCCC4)ccc31)[C@H](c1ccc(OCCO)cc1)N1[C@H](c3ccccc3)[C@H](c3ccccc3)OC(=O)[C@H]1[C@@H]2C(=O)Nc1nc2ccccc2s1	f
C=CC[C@H](OC(=O)Nc1ccc(SC)cc1)c1ccc(OCCO)cc1	t
CCOC(=O)C[C@H]1[C@H](OC(=O)c2ccccc2-c2ccccc2)[C@@H](NC(=O)c2ccc3ccccc3n2)c2cc(OCCCO)ccc2N1C(=O)c1ccccc1	t
NC(=O)[C@H]1[C@@H]2C(=O)O[C@@H](c3ccccc3)[C@@H](c3ccccc3)N2[C@@H](c2ccc(O)cc2)[C@]12C(=O)Nc1ccc(C#CC3=CCCCC3)cc12	f
